- test-system: hGYS2 enzyme (recombinant hGYS2/GN1 protein) (Homo sapiens (Human), UniProt P54840)
- Sequence (P54840 whole entry): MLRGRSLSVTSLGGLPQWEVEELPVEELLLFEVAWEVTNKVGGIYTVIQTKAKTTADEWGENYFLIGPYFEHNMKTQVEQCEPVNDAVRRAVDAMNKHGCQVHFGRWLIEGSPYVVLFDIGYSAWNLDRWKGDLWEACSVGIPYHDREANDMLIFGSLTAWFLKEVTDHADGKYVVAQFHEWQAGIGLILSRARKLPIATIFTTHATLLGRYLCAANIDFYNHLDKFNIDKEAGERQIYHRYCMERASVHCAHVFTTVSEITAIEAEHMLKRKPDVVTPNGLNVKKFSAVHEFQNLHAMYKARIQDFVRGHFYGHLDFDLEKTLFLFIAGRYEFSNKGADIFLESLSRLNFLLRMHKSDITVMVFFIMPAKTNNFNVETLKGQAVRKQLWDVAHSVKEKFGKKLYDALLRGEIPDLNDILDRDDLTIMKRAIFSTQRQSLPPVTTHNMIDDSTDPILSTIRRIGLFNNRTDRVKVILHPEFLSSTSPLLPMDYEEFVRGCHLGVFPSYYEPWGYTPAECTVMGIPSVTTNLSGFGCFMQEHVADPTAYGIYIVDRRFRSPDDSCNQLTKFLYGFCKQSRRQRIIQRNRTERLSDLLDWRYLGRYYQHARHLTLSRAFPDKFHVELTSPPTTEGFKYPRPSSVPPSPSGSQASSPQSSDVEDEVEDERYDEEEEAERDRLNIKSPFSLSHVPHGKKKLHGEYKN
- Sequence (P46976 whole entry partner): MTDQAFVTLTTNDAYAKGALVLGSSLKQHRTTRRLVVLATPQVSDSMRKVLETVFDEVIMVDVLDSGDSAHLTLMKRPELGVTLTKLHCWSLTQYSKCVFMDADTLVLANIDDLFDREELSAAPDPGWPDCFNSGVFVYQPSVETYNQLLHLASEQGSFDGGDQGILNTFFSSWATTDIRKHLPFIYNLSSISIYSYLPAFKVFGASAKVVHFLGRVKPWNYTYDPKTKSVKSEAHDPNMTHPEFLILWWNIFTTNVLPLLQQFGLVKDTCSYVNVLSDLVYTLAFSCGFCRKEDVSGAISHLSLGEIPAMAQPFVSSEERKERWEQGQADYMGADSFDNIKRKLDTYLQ
- experimental-protocol: GYS2 coupled enzyme assay (PK/LDH)
- run-conditions: geometric mean of at least 2 assay runs on separate days, read-out: Avg_IC50
Some compounds, each annotated with its measured IC50.

// known answers, use as guide
>>> print(df.to_string())
                                   compound                               test_system  measured_endpoint     value
0  COc1cccnc1CCC(=O)N1C[C@H](F)C[C@H]1C(=O)N[C@@H](c1ccccc1)c1ccc(C(C)C)cc1 [Compound 135]  hGYS2 enzyme (recombinant hGYS2/GN1 protein) (Homo sapiens (Human), UniProt P54840)               IC50  > 100 µM
1  CCN(CC)c1cnn(CC(=O)N2C[C@H](F)C[C@H]2C(=O)N[C@@H](c2ccccc2)c2ccc(C(C)C)c(F)n2)n1 [Compound 414]  hGYS2 enzyme (recombinant hGYS2/GN1 protein) (Homo sapiens (Human), UniProt P54840)               IC50   78.7 µM

Please turn your attention to the following entry.
Problem: Looking for the measured IC50 of O=C(N[C@@H](c1ccccc1)c1ccc(C2CC2)c(F)c1)[C@@H]1C[C@@H](F)CN1C(=O)CNC(=O)N1CC(C(F)(F)F)C1 [Compound 496] , can you help?
Result: > 100 µM

###

- test-system: hGYS2 enzyme (recombinant hGYS2/GN1 protein) (Homo sapiens (Human))
- experimental-protocol: GYS2 coupled enzyme assay (PK/LDH)
- run-conditions: geometric mean of at least 2 assay runs on separate days, read-out: Avg_IC50
pIC50: −log10 of the molar value.
Some compounds, each annotated with its measured pIC50.

>>> df
                           substance_smiles                               test_system  measured_endpoint   value
0  CC(C)c1ccc([C@@H](NC(=O)[C@@H]2C[C@@H](F)CN2C(=O)Cc2ccc3ncnn3c2)c2ccccc2)cc1  hGYS2 enzyme (recombinant hGYS2/GN1 protein) (Homo sapiens (Human))              pIC50  < 4.00
1  CN(C)c1cn(CC(=O)N2C[C@H](F)C[C@H]2C(=O)N[C@@H](c2ccccc2)c2ccc(C3CC3)c(F)c2)nn1  hGYS2 enzyme (recombinant hGYS2/GN1 protein) (Homo sapiens (Human))              pIC50  < 4.00
2  CC(=O)N1C[C@H](O)C[C@H]1C(=O)N[C@@H](c1ccccc1)c1ccc(C(C)C)cc1  hGYS2 enzyme (recombinant hGYS2/GN1 protein) (Homo sapiens (Human))              pIC50  < 4.00
3  CC(C)c1ccc([C@@H](NC(=O)[C@@H]2C[C@@H](F)CN2C(=O)CCc2cnc3[nH]ccc3c2)c2ccccc2)cc1  hGYS2 enzyme (recombinant hGYS2/GN1 protein) (Homo sapiens (Human))              pIC50  < 4.00
4  CC(=O)N1CC[C@@H](C(=O)N2C[C@H](F)C[C@H]2C(=O)N[C@@H](c2ccccc2)c2ccc(C(C)C)cc2)[C@@H]1c1cccnc1  hGYS2 enzyme (recombinant hGYS2/GN1 protein) (Homo sapiens (Human))              pIC50  < 4.00
5  CC(=O)N1CCC[C@@H](CC(=O)N2C[C@H](F)C[C@H]2C(=O)N[C@@H](c2ccccc2)c2ccc(C(C)C)cc2)C1  hGYS2 enzyme (recombinant hGYS2/GN1 protein) (Homo sapiens (Human))              pIC50  < 4.00

Problem: Looking for the measured pIC50 of CNC(=O)NCC(=O)N1C[C@H](F)C[C@H]1C(=O)N[C@@H](c1ccccc1)c1ccc(C(C)C)c(F)n1 , can you help?
Result: < 4.00
